Reference source: patent US8513276B2

Biological target: FGFR3 (Homo sapiens, UniProt P22607)
Construct: Enzymes (from Upstate) were prepared at 2× final concentration in 1× kinase assay buffer; purchased Upstate
Sequence (P22607 23-806): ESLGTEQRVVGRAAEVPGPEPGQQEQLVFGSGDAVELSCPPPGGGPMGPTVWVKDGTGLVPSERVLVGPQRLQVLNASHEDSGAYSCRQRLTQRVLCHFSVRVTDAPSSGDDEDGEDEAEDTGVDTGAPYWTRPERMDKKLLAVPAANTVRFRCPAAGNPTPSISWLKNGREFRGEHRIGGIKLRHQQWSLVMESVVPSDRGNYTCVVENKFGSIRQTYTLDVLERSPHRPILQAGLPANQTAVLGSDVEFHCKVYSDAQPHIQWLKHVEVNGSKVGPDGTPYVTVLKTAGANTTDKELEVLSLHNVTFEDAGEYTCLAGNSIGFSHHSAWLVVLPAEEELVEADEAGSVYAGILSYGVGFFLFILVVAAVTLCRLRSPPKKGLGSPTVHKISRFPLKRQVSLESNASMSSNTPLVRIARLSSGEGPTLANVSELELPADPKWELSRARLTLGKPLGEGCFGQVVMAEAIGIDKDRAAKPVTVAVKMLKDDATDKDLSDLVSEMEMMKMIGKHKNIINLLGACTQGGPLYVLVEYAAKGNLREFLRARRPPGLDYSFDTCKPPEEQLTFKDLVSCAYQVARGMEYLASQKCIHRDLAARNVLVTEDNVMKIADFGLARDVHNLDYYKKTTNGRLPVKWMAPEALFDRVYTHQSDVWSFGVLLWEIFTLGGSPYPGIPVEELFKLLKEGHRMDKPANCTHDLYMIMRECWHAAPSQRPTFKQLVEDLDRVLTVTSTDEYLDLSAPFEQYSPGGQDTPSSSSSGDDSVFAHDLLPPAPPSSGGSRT
Assay: FGFR3 in vitro kinase inhibitory activity assay (TRF)
Assay type: biochemical
Settings: in vitro kinase assay, 8 μM ATP; read-out: FGFR3 IC50
Counter-ions that a name gives are not always drawn.
# IC50 listing for each entry below
MEASURED METRIC: IC50 (nM)

MOLECULE: Fc1ccc(-c2cnc3c(-c4cccc(Nc5nncs5)c4)cnn3c2)cc1 [Example 10]
OBSERVED RESULT: 4.82
--
MOLECULE: Fc1ccc(-c2cnc3c(-c4cc(Nc5nncs5)ccn4)cnn3c2)cc1 [Example 31]
OBSERVED RESULT: 350
--
MOLECULE: Nc1ccc(-c2ccn3c(-c4cccc(Nc5nncs5)c4)cnc3c2)cn1 [Example 37, Hydrochloride]
OBSERVED RESULT: 2.55
--
MOLECULE: Cn1nnc(-c2ccn3c(-c4cccc(Nc5nncs5)c4)cnc3c2)n1 [Example 43]
OBSERVED RESULT: 33.9
